Target: UCP2 (murine, residues 14-309) (Mus musculus, UniProt P70406)
Sequence (P70406 14-309): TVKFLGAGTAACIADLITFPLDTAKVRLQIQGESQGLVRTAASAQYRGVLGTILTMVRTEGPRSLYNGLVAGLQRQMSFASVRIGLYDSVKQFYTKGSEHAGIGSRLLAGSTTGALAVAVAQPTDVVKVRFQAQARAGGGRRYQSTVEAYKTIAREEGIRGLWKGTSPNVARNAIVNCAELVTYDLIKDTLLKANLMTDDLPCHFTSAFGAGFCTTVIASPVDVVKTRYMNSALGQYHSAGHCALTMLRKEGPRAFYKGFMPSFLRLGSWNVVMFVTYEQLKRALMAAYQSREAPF
REPORTED PROPERTY: Kd (µM)
Report only the number, with the unit µM understood.

Task item: Entry "CCCCCCCCCCCCCCCC(=O)O" has what Kd?
Reply: 600
